FYI, the data here is from ChEMBL document CHEMBL1671662.

Measured MIC50 by item
- Test system: Bifidobacterium dentium
- test-protocol: Antibacterial activity against Bifidobacterium dentium by CLSI M11-A6 agar dilution method
- Format: functional

CN[C@H](CC(C)C)C(=O)N[C@H]1C(=O)N[C@@H](CC(N)=O)C(=O)N[C@H]2C(=O)N[C@H]3C(=O)N[C@H](C(=O)N[C@H](C(=O)O)c4cc(O)cc(O)c4-c4cc3ccc4O)[C@H](O)c3ccc(c(Cl)c3)Oc3cc2cc(c3O[C@@H]2O[C@H](CO)[C@@H](O)[C@H](O)[C@H]2O[C@H]2C[C@](C)(N)[C@H](O)[C@H](C)O2)Oc2ccc(cc2Cl)[C@H]1O [VANCOMYCIN]
0.5 mg/L
Cc1ncc([N+](=O)[O-])n1CCO [METRONIDAZOLE]
1 mg/L
CC(=O)NC[C@H]1CN(c2ccc(N3CCOCC3)c(F)c2)C(=O)O1 [LINEZOLID]
1 mg/L

Proceeding to the next molecule to report its MIC50.
Look up MIC50 for this molecule: CCCCCCCCCCNCCN[C@@]1(C)C[C@H](O[C@H]2[C@H](Oc3c4cc5cc3Oc3ccc(cc3Cl)[C@@H](O)[C@@H](NC(=O)[C@@H](CC(C)C)NC)C(=O)N[C@@H](CC(N)=O)C(=O)N[C@H]5C(=O)N[C@H]3C(=O)N[C@H](C(=O)N[C@H](C(=O)O)c5cc(O)c(CNCP(=O)(O)O)c(O)c5-c5cc3ccc5O)[C@H](O)c3ccc(c(Cl)c3)O4)O[C@H](CO)[C@@H](O)[C@@H]2O)O[C@@H](C)[C@H]1O [TELAVANCIN] ≤ 0.12 mg/L

* * *

- Tested on: Paraclostridium bifermentans
- test-protocol: Antibacterial activity against Clostridium bifermentans by CLSI M11-A6 agar dilution method
- Type: functional
measure: MIC90 (µg/mL)
Return type: number; implicit unit µg/mL.

CC(=O)NC[C@H]1CN(c2ccc(N3CCOCC3)c(F)c2)C(=O)O1
4

Would you mind telling me what MIC90 value was observed for `CCCCCCCCCC(=O)N[C@@H](Cc1c[nH]c2ccccc12)C(=O)N[C@H](CC(N)=O)C(=O)N[C@@H](CC(=O)O)C(=O)N[C@@H]1C(=O)NCC(=O)N[C@@H](CCCN)C(=O)N[C@@H](CC(=O)O)C(=O)N[C@H](C)C(=O)N[C@@H](CC(=O)O)C(=O)NCC(=O)N[C@H](CO)C(=O)N[C@@H]([C@H](C)CC(=O)O)C(=O)N[C@@H](CC(=O)c2ccccc2N)C(=O)O[C@@H]1C` ? 8

Consider the compound `Cc1ncc([N+](=O)[O-])n1CCO` and give its measured MIC90. 1

Quick one: MIC90 for `CCC[C@@H]1C[C@@H](C(=O)N[C@@H]([C@H]2O[C@H](SC)[C@H](O)[C@@H](O)[C@H]2O)[C@H](C)Cl)N(C)C1` ? 4

Any idea what MIC90 was measured for `CN[C@H](CC(C)C)C(=O)N[C@H]1C(=O)N[C@@H](CC(N)=O)C(=O)N[C@H]2C(=O)N[C@H]3C(=O)N[C@H](C(=O)N[C@H](C(=O)O)c4cc(O)cc(O)c4-c4cc3ccc4O)[C@H](O)c3ccc(c(Cl)c3)Oc3cc2cc(c3O[C@@H]2O[C@H](CO)[C@@H](O)[C@H](O)[C@H]2O[C@H]2C[C@](C)(N)[C@H](O)[C@H](C)O2)Oc2ccc(cc2Cl)[C@H]1O` ? 4

State the recorded MIC90 for this entry: `CCCCCCCCCCNCCN[C@@]1(C)C[C@H](O[C@H]2[C@H](Oc3c4cc5cc3Oc3ccc(cc3Cl)[C@@H](O)[C@@H](NC(=O)[C@@H](CC(C)C)NC)C(=O)N[C@@H](CC(N)=O)C(=O)N[C@H]5C(=O)N[C@H]3C(=O)N[C@H](C(=O)N[C@H](C(=O)O)c5cc(O)c(CNCP(=O)(O)O)c(O)c5-c5cc3ccc5O)[C@H](O)c3ccc(c(Cl)c3)O4)O[C@H](CO)[C@@H](O)[C@@H]2O)O[C@@H](C)[C@H]1O` 0.25
